Items are presented alongside their recorded TP.
species: Rattus norvegicus; assay: Open TG-GATES - Regimen: Single; type: toxicity, organism-based, Sprague-Dawley; design: regimen Single, gender Male, age 6 weeks; details: in vivo, po, 300 mg/kg, 24 h, tissue Plasma, route gavage, dose level Middle
metric name: TP (g/dL)

molecule=NC(N)=Nc1nc(CSCCC(N)=NS(N)(=O)=O)cs1 measured_result=5.6
molecule="CCOC(=O)CCC(=O)O[C@H]1[C@H](O[C@@H]2[C@@H](C)[C@H](O[C@H]3C[C@@](C)(OC)[C@@H](O)[C@H](C)O3)[C@@H](C)C(=O)O[C@H](CC)[C@@](C)(O)[C@H](O)[C@@H](C)C(=O)[C@H](C)C[C@@]2(C)O)O[C@H](C)C[C@@H]1N(C)C [ERYTHROMYCIN ETHYLSUCCINATE]" measured_result=5.4
molecule="COc1ccc2[nH]c([S+]([O-])Cc3ncc(C)c(OC)c3C)nc2c1 (centres undefined)" measured_result=5.5
molecule=COC1=CC(=O)C[C@@H](C)[C@]12Oc1c(Cl)c(OC)cc(OC)c1C2=O measured_result=5.4

* * *

organism: Rattus norvegicus; assay: Open TG-GATES - Regimen: Single; assay type: toxicity, organism-based, Sprague-Dawley; parameters: regimen Single, gender Male, age 6 weeks; details: in vivo, po, 0 mg/kg, 9 h, tissue Blood, route gavage, dose level Control
metric name: Neu (%)

molecule=NNC(=O)c1ccncc1 measured_result=16.6
molecule=CN(C)CCCN1c2ccccc2CCc2ccc(Cl)cc21 measured_result=18
molecule=Cc1ccc(C)c(OCCCC(C)(C)C(=O)O)c1 measured_result=15.8
molecule=CN(C)CCN(Cc1cccs1)c1ccccn1 measured_result=14.8
molecule=COC1=CC(=O)C[C@@H](C)[C@]12Oc1c(Cl)c(OC)cc(OC)c1C2=O measured_result=23.8
molecule="CCCNC(=O)NS(=O)(=O)c1ccc(Cl)cc1 [CHLORPROPAMIDE]" measured_result=21
molecule=C[C@@H]1C[C@H]2[C@@H]3CCC4=CC(=O)C=C[C@]4(C)[C@@]3(F)[C@@H](O)C[C@]2(C)[C@@]1(O)C(=O)CO measured_result=19
molecule=O=C(CCCN1CCC(O)(c2ccc(Cl)cc2)CC1)c1ccc(F)cc1 measured_result=24
molecule="COc1ccc2[nH]c([S+]([O-])Cc3ncc(C)c(OC)c3C)nc2c1 (configuration not stated)" measured_result=17.4
molecule=NC(N)=Nc1nc(CSCCC(N)=NS(N)(=O)=O)cs1 measured_result=29
molecule=COc1cc2c(c(OC)c1OC)-c1ccc(OC)c(=O)cc1[C@@H](NC(C)=O)CC2 measured_result=8.4
molecule=CC1=C(/C=C/C(C)=C/C=C/C(C)=C/CO)C(C)(C)CCC1 measured_result=15

* * *

species: Rattus norvegicus; assay: Open TG-GATES - Regimen: Daily Repeat; assay type: toxicity, organism-based, Sprague-Dawley; design: regimen Daily Repeat, gender Male, age 6 weeks; settings: in vivo, po, 10 mg/kg, […], tissue Plasma, route gavage, dose level Low, time 7 day
metric name: K

molecule="CC(C)OC(=O)C(C)(C)Oc1ccc(C(=O)c2ccc(Cl)cc2)cc1 [FENOFIBRATE]" metric_name=K measured_result="4.4 meq/L"
molecule="CN(C)CCCN1c2ccccc2CCc2ccccc21 [IMIPRAMINE]" metric_name=K measured_result="4.2 meq/L"
molecule="CC1=C(/C=C/C(C)=C/C=C/C(C)=C/CO)C(C)(C)CCC1 [RETINOL]" metric_name=K measured_result="4.1 meq/L"
molecule=CN(C)CCN(Cc1cccs1)c1ccccn1 metric_name=K measured_result="4.7 meq/L"

Cited source: ChEMBL document CHEMBL3885861
